Target: T1, human CD22 on CD22-positive Burkitt's lymphoma cells (Daudi, Raji, Ramos) (human, UniProt P20273 20-847)
T1 construct: whole, on cells; also called CD22+ cells; CD22 positive cells
T1 sequence (looked up): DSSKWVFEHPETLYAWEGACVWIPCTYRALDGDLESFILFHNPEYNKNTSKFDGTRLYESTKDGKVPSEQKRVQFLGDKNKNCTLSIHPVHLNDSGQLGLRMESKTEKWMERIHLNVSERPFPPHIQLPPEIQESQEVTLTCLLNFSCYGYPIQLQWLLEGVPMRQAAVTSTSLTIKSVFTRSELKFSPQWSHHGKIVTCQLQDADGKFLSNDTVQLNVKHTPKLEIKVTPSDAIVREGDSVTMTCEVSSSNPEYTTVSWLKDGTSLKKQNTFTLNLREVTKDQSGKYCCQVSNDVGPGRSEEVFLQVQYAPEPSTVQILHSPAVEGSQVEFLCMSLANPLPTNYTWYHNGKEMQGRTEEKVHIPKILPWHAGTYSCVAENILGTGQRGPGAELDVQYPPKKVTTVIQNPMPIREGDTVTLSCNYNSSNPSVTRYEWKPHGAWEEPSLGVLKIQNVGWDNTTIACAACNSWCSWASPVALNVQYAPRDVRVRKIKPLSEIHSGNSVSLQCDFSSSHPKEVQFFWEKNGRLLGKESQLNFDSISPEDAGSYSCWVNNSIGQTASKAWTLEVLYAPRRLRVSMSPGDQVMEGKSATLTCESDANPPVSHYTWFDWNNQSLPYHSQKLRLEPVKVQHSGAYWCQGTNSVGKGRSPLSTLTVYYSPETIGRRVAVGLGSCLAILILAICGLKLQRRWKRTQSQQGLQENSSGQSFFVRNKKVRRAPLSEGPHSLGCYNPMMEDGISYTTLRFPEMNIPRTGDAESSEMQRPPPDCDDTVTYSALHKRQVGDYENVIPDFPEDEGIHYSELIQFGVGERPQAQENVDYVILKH
Test: cell binding, Daudi cells
measurementKind: binding result

>  <binder>
anti-CD22 heavy chain-only antibody with the VH of SEQ ID NO: 66 (antibody, V domains shown, Heavy chain-only antibody (UniAb), human IgG) VH: QLQLQESGPGLVKPSETLSLTCTVSGGSISSSSYYWGWIRQPPGKGLEWIGSIYYSGSTYYNPSLKNRVTISVDTSKNQFSLKLSSVTAADTAVYYCTREDSSNWRSRGQGTLVTVSS

>  <recordedResult>
binds

$$$$
>  <binder>
anti-CD22 heavy chain-only antibody with the VH of SEQ ID NO: 62 (antibody, V domains shown, Heavy chain-only antibody (UniAb), human IgG) VH: QLQLQESGPGLVKPSETLSLTCTVSGGSISSSSYYWGWIRQPPGKGLEWIGHIYYSGATYYNPSLKNRVTISVDTSRNQFSLNLSSVTAADTAVYYCTREDSSSWRSRGQGTLVTVSS

>  <recordedResult>
binds

$$$$
>  <binder>
anti-CD22 heavy chain-only antibody with the VH of SEQ ID NO: 77 (antibody, V domains shown, Heavy chain-only antibody (UniAb), human IgG) VH: QLQLQESGPGLVKPSETLSLTCTVSGGSISSSSYYWGWFRHPPGKGLDWIGSIHYSGSTYYNPSLKSRVTISVDTSRNQFSLNLSSVTAADTAVYYCTRDDSSNWRSRGQGTLVTVSS

>  <recordedResult>
binds

$$$$
>  <binder>
anti-CD22 heavy chain-only antibody with the VH of SEQ ID NO: 38 (antibody, V domains shown, Heavy chain-only antibody (UniAb), human IgG) VH: QLQLQESGPGLVKPSETLSLTCTVSGDSISSGDYYWGWIRQPPGKGLEWIGHIYYSGATYYNPSLKNRVTISVDTSRNQFSLNLSSVTAADTAVYYCTREDSSNWRSRGQGTLVTVSS

>  <recordedResult>
binds

$$$$
>  <binder>
anti-CD22 heavy chain-only antibody with the VH of SEQ ID NO: 36 (antibody, V domains shown, Heavy chain-only antibody (UniAb), human IgG) VH: QLQLQESGPGLVKPSETLSLTCTVSGDSISSGDYYWGWIRQPPGKGLEWIGHIYYSGATYYNPSLKNRVTISVDTSRNQFSLKLSSVTAADTAVYYCTREDSSSWRSRGQGTLVTVSS

>  <recordedResult>
binds

$$$$
>  <binder>
anti-CD22 heavy chain-only antibody with the VH of SEQ ID NO: 75 (antibody, V domains shown, Heavy chain-only antibody (UniAb), human IgG) VH: QLQLQESGPGLVKPSETLSLTCTVSGGSISSSSYYWGWIRQPPGKGLEWIGHIYYSGATYYNPSLKNRVTISVDTSKNQFSLKLSSVTAADTAVYYCTREDSSSWRSRGQGTLVTVSS

>  <recordedResult>
binds

$$$$
>  <binder>
anti-CD22 heavy chain-only antibody with the VH of SEQ ID NO: 72 (antibody, V domains shown, Heavy chain-only antibody (UniAb), human IgG) VH: QLQLQESGPGLVKPSETLSLTCTVSGGSISSSSYYWGWIRQPPGKGLEWIGSIYYSGATYYNPSLKNRVTISVDTSRNQFSLNLSSVTAADTAMYYCTREDSSNWRSRGQGTLVTVSS

>  <recordedResult>
binds

$$$$
>  <binder>
anti-CD22 heavy chain-only antibody with the VH of SEQ ID NO: 70 (antibody, V domains shown, Heavy chain-only antibody (UniAb), human IgG) VH: QLQLQESGPGLVRPSETLSLTCTVSGGSISSSSYYWGWIRQPPGKGLEWIGSIYYSGSTYYNPSLKSRVTISVDTSKNQFSLKLSSVTAADTAVYYCTREDSSSWRSRGQGTLVTVSS

>  <recordedResult>
binds

$$$$
